# test_name: Solubility analysis in distilled water (HPLC)
# Assay type: physicochemical
# assay_setup: distilled water, water, thermodynamic from solid; 37° C.
measured_property: solubility at 1 h (µM)

N=C(N)NN [Positive control group (Aminoguanidine), aminoguanidine, reference compound]; 30
